// reported SH2 binding enrichment for each item listed
- TESTED SYSTEM: SHP2-C SH2;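 further: peptide library displayed on the E. coli surface as eCPX fusions, selected cells deep-sequenced, score is each peptide's frequency after selection divided by its frequency in the input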
- ASSAY EXPLANATION: SH2 binding enrichment of the phosphorylated peptide, bacterial display (enrichment ratio); higher = better substrate or ligand; peptides without Tyr show the background
Lab note: write the figure by itself, no unit.

>  <SEQUENCE TEXT>
CNLDTYQKRLR [PLA2G2D_Y126_R121C]

>  <SH2 binding enrichment>
0.78

$$$$

Inquiry: Give the value of SH2 binding enrichment reported for the following: SVVVPYEPHEV [TP53_Y220_P223H]
Reply text: 0.781

Inquiry: Provide one value: measured SH2 binding enrichment of DENRFYTRAAS [RPS19_Y54_W52R]
Reply text: 0.789

Inquiry: Please give measured SH2 binding enrichment of the following entry: LEQQKYTVTVD [IKBKB_Y199]
Reply text: 0.616
